- target_entity: Grb2 SH2 (UniProt P62993)
- protocol_description: SH2 binding enrichment of the phosphorylated peptide, bacterial display (enrichment ratio); higher = better substrate or ligand; peptides without Tyr show the background;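 note: peptide library displayed on the E. coli surface as eCPX fusions, selected cells deep-sequenced, score is each peptide's frequency after selection divided by its frequency in the input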
measured_endpoint: SH2 binding enrichment

Examples with answers:
# seq_text, SH2 binding enrichment
data = [
    ("ISKKHYAGLLF [POLD1_Y809_R808H]", 1.22),
    ("YAFQLYDLDPD [CHP2_Y123_R127P]", 0.986),
]

a: SVTCTYSPDLN [TP53_Y126_A129D]
b: LLLLFCVVRYC [MPZ_Y177_Y177C]
c: FHIDHYLGKEM [G6PD_Y202_R198H_YF]
[in] Rank ascending by SH2 binding enrichment. Order the labels as requested and give them as your answer.
[out] a, c, b
(a: 0.89, c: 1.33, b: 2.53)
